Reference source: the antibiotic and cytotoxicity screens of Wong et al. (2023)

# Tested on: HSkMC (human skeletal muscle cells)
# measurement notes: cytotoxicity call (relative viability < 0.9)
# experimental parameters: 10 µM
About 1,500 (3.8%) of roughly 39,000 compounds were called active. This is one part of a sample in which actives are shown more often than they occur.
endpoint name: cytotoxicity call

>  <smiles repr>
C[C@@H]1CN([C@@H](C)CO)C(=O)Cc2cc(NC(=O)Nc3ccc(F)cc3)ccc2O[C@H]1CN(C)CC1CCCCC1

>  <system under test>
HSkMC

>  <endpoint name>
cytotoxicity call

>  <result>
inactive

$$$$
>  <smiles repr>
C[C@H](CO)N1C[C@H](C)[C@H](CN(C)CC2CCCCC2)Oc2ccc(NC(=O)Nc3ccc(F)cc3)cc2CC1=O

>  <system under test>
HSkMC

>  <endpoint name>
cytotoxicity call

>  <result>
inactive

$$$$
>  <smiles repr>
Cc1ccc(S[C@]2(C(=O)NCc3ccccc3)CC(=O)N(Cc3cc(C(F)(F)F)cc(C(F)(F)F)c3)[C@@H]2c2ccc(CO)cc2)cc1

>  <system under test>
HSkMC

>  <endpoint name>
cytotoxicity call

>  <result>
inactive

$$$$
